Sourced from ChEMBL document CHEMBL4011630

molecular target: Nicotinic acetylcholine receptor alpha6/alpha3/beta4 (Rattus norvegicus, UniProt P04757+P12392+P43143); test: Antagonist activity at rat alpha6/alpha3beta4 nACHR expressed in xenopous laevis oocyte assessed as inhibition of ACh induced channel current after 5 mins at -70 mV holding potential by two electrode voltage clamp method
Sequence (P04757 whole entry): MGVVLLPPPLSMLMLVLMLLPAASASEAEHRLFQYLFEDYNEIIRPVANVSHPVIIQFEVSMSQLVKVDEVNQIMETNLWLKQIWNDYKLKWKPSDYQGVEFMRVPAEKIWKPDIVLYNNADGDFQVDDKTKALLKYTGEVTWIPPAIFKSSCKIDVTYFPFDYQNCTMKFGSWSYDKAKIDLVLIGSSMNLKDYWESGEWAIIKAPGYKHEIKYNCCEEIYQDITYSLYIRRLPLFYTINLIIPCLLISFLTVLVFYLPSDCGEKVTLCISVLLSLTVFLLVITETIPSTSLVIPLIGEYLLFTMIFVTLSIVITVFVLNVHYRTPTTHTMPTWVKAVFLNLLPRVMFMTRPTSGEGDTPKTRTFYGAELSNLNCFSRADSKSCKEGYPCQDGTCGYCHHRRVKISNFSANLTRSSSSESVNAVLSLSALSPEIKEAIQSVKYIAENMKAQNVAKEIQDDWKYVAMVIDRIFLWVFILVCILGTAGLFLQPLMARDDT
Sequence (P12392 whole entry): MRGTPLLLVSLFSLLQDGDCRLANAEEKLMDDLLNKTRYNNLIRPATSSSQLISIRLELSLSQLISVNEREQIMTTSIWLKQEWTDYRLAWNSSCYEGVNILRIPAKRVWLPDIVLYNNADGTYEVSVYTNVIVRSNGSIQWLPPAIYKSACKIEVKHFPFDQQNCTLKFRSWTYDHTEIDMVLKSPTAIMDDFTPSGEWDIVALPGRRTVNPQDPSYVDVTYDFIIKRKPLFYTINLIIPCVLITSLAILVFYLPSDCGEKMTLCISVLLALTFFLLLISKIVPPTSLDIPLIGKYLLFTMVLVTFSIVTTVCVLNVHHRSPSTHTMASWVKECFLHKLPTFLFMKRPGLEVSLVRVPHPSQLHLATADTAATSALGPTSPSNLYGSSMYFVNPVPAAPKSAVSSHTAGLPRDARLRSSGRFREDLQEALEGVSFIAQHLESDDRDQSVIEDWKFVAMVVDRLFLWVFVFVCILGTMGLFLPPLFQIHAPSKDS
Sequence (P43143 whole entry): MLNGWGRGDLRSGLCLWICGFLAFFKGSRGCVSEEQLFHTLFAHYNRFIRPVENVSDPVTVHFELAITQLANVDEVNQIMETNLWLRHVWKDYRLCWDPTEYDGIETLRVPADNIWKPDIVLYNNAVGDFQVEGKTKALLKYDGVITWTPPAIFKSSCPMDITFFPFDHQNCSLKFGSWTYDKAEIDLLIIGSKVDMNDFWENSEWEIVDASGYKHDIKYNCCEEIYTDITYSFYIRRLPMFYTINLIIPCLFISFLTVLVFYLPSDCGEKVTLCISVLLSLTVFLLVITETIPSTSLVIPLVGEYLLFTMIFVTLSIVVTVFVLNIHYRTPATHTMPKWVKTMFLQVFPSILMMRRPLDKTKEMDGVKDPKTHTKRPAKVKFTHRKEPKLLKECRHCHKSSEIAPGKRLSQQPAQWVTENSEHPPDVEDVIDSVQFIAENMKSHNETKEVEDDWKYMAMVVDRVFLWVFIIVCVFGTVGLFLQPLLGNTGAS
pIC50: −log10 of the molar value. Where a SMILES comes first, the peptide text is derived from it. Bridges are numbered along the chain shown (N, C = ends). [ ]: non-standard residue; d: D form. hMet = CSCCC[C@H](N)C(=O)O
Items are presented alongside their recorded pIC50.

[
  {
    "compound": "CC(C)C[C@@H]1NC(=O)[C@H](C(C)C)NC(=O)[C@H](C)NC(=O)[C@@H]2CSSC[C@H](NC(=O)CN)C(=O)N[C@@H](CSSC[C@H](C(N)=O)NC(=O)[C@H](Cc3ccc(O)cc3)NC1=O)C(=O)N[C@@H](CO)C(=O)N[C@@H](C)C(=O)N[C@@H](CCCN)C(=O)N1CCC[C@H]1C(=O)N2",
    "pIC50": 7.24
  },
  {
    "compound": "CC[C@H](C)[C@@H]1NC(=O)[C@@H]2CCCN2C(=O)[C@H](CO)NC(=O)[C@H](CCCSC)NC(=O)[C@H](C)NC(=O)[C@H](CO)NC(=O)[C@@H]2CSSC[C@H](NC(=O)CN)C(=O)N[C@@H](CSSC[C@@H](C(N)=O)NC1=O)C(=O)N[C@@H](C)C(=O)N[C@@H](Cc1cnc[nH]1)C(=O)N1CCC[C@H]1C(=O)N[C@@H](C(C)C)C(=O)N2 (H-GCCAHPVCSA[hMet]SPIC-NH2; disulfide 2-8, 3-15)",
    "pIC50": 7.19
  }
]
